Tested on: CL1-5
Assay: Reduction in total wild type EGFR levels in gefinitib-insensitive and 24 hrs serum starved human CL1-5 cells at 10 uM pre-incubated for 1 hr before EGF stimulation for 30 mins by Western blot method
Format: functional
Calls of active or inactive are those of the source. The rule behind the calls is not given here.
Would you mind answering with one of these outcomes? class 1 = active, class 0 = inactive

As a guide, the following entries are already answered.
- compoundString: "COc1cc(/C=C/C(=O)/C=C(O)/C=C/c2cc(O)c(OC)c(OC)c2)cc(O)c1OC"
  classification: "class 0"
- compoundString: "COc1cc(/C=C/C(=O)/C=C(O)/C=C/c2ccc(OCC(=O)O)c(OC)c2)ccc1OCC(=O)O"
  classification: "class 0"
- compoundString: "COc1ccc(/C=C/C(=O)/C=C(O)/C=C/c2ccc(OC)c(OC)c2)cc1OC"
  classification: "class 1"
- compoundString: "CCOC(=O)CC/C(C(=O)/C=C/c1ccc(OC)c(OC)c1)=C(O)\\C=C\\c1ccc(O)c(OC)c1"
  classification: "class 1"
- compoundString: "CCOC(=O)CC/C(C(=O)/C=C/c1cc(O)c(OC)c(OC)c1)=C(O)\\C=C\\c1cc(O)c(OC)c(OC)c1"
  classification: "class 0"
- compoundString: "COc1cc(/C=C/C(O)=C/C(=O)/C=C/c2ccc(O)c(O)c2)ccc1O"
  classification: "class 0"

Ask | Record request — test call for `CCOC(=O)CC/C(C(=O)/C=C/c1ccc(OC)c(OC)c1)=C(O)\C=C\c1ccc(OC)c(OC)c1`
Reply | class 0

Ask | Record request — test call for `COc1cc(/C=C/C(=O)/C(CCC(=O)O)=C(O)/C=C/c2ccc(OCCCC(=O)O)c(OC)c2)ccc1OCCCC(=O)O`
Reply | class 0

Ask | Record request — test call for `COc1cc(/C=C/C(=O)/C(CCC(=O)O)=C(O)/C=C/c2ccc(O)c(OC)c2)ccc1O`
Reply | class 0

Ask | Record request — test call for `COc1cc(/C=C/C(=O)/C=C(O)/C=C/c2ccc(OCC(=O)Nc3ccccc3)c(OC)c2)ccc1OCC(=O)Nc1ccccc1`
Reply | class 0

----------
Tested on: CL1-5
Experiment: Reduction in total wild type EGFR levels in gefinitib-insensitive and 24 hrs serum starved human CL1-5 cells at 10 uM pre-incubated for 1 hr before EGF stimulation for 30 mins by Western blot method
Assay type: functional
Activity calls are given as the source filed them. No cut-off for these calls is given here.
Would you mind answering with one of these outcomes? true (1) (active), false (0) (inactive)

As a guide, the following entries are already answered.
- compoundString: "CCOC(=O)CC/C(C(=O)/C=C/c1ccc(O)c(OC)c1)=C(O)\\C=C\\c1ccc(O)c(OC)c1"
  experimentalSystem: "CL1-5"
  classification: "true (1)"
- compoundString: "O=C(/C=C(O)/C=C/c1ccc(O)c(O)c1)/C=C/c1ccc(O)c(O)c1"
  experimentalSystem: "CL1-5"
  classification: "true (1)"
- compoundString: "CCOC(=O)CCCOc1ccc(/C=C/C(=O)/C=C(O)/C=C/c2ccc(OCCCC(=O)OCC)c(OC)c2)cc1OC"
  experimentalSystem: "CL1-5"
  classification: "false (0)"
- compoundString: "COc1ccc(/C=C/C(=O)/C(C)=C(O)/C=C/c2ccc(OC)c(OC)c2)cc1OC"
  experimentalSystem: "CL1-5"
  classification: "true (1)"
- compoundString: "COc1cc(/C=C/C(O)=C/C(=O)/C=C/c2ccc(OC)c(OC)c2)ccc1O"
  experimentalSystem: "CL1-5"
  classification: "true (1)"
- compoundString: "CCOC(=O)CC/C(C(=O)/C=C/c1ccc(OCC(=O)OC)c(OC)c1)=C(O)\\C=C\\c1ccc(OCC(=O)OC)c(OC)c1"
  experimentalSystem: "CL1-5"
  classification: "false (0)"

Ask | Record request — test call for `CCOC(=O)CC/C(C(=O)/C=C/c1ccc(O)c(OC)c1)=C(O)\C=C\c1ccc(O)c(O)c1`
Reply | true (1)

Ask | Record request — test call for `CCOC(=O)CC/C(C(=O)/C=C/c1ccc(O)c(O)c1)=C(O)\C=C\c1ccc(O)c(O)c1`
Reply | true (1)

Ask | Record request — test call for `COc1ccc(/C=C/C(=O)/C=C(O)/C=C/c2ccc(OC)c(OC)c2OC)c(OC)c1OC`
Reply | true (1)
